The measurements presented in this section are drawn from PubChem BioAssay (NCI).

Give measured TGI for each item. Keep answers brief.
System: SF-295 CNS
Assay: NCI tumour cell line growth inhibition, 48 h

Prompt: Consider the compound CC(C)CC(=O)CC(O)C(Cl)(Cl)Cl (stereo unspecified) and give its measured TGI.
Response: > 100 µM

Prompt: Dear colleague, I am looking for the recorded TGI of the following compound: CC(C)C[C@H](NC(=O)[C@H](CCc1ccccc1)NC(=O)c1ccc2ccccc2n1)B(O)O
Response: 0.305 µM

Prompt: Param item = CCOC(=O)CN(Cc1ccccc1)Cc1c(C(=O)c2ccccc2)c2ccccc2n1C(=O)c1ccccc1 ; retrieve measured TGI.
Response: > 100 µM

Prompt: GET /values?readout=TGI&item= CC1CN=C(N(C)C(=O)Nc2ccc(Cl)c(Cl)c2)S1 (stereo unspecified)
Response: > 100 µM

Prompt: Could you tell me which TGI is on file for O=C1/C(=C2\SCC(=O)N2c2ccccc2)SC(=S)N1c1ccccc1 ?
Response: 82.7 µM

Prompt: Any idea what TGI was measured for CN(Cc1ccccc1)C1(N(C)Cc2ccccc2)CC1 ?
Response: > 100 µM

Prompt: I have this compound here, C=CCNC(=S)OCCCCCCCCCC , and I need its recorded TGI.
Response: 34.5 µM

Prompt: Look up TGI: Cc1[nH]nc(C(=O)Nc2n[nH]c3ccccc23)c1[N+](=O)[O-]
Response: > 100 µM

Prompt: Item O=c1cc2cc(O)[nH]c(=O)c2c(O)[nH]1 has what recorded TGI?
Response: > 100 µM

Prompt: Name the recorded TGI for CCOC(=O)c1ccc(NC(NC(=O)CC)(C(F)(F)F)C(F)(F)F)cc1 .
Response: > 100 µM

Prompt: What value of measured TGI is listed for O=C1CCC(=O)C12CCc1cccc(O)c12 ?
Response: > 100 µM

====

System: UACC-62 melanoma
Test: NCI tumour cell line growth inhibition, 48 h
recorded_metric: TGI

Prompt: Look up TGI: C1=C[C@]2(CCC13OCCO3)COc1ccccc12
Response: > 100 µM

Prompt: Given Cn1cnc([N+](=O)[O-])c1Sc1nnc(C(F)(F)F)n1C , state its recorded TGI.
Response: 33.5 µM

Prompt: Which measured TGI value corresponds to CSc1nc(=O)c(C#N)c(-c2ccccc2)n1C1OC(COC(C)=O)C(OC(C)=O)C(OC(C)=O)C1OC(C)=O (stereo not given) ?
Response: > 100 µM

Prompt: TGI for CC(C)(C)c1nnc2n(c1=O)N=CC(c1ccc(Br)cc1)S2 (stereo not given) ?
Response: 32.7 µM

Prompt: Param item = COc1cc(C)cc(OC)c1/C=C/C(=O)O ; retrieve measured TGI.
Response: > 100 µM

Prompt: Reported TGI, compound O=C(NC(CO)CO)c1ccc2cc(C(=O)N3CC(CCl)c4ccc([N+](=O)[O-])cc43)[nH]c2c1 (stereo not given) : ____
Response: > 100 µM

Prompt: If you can, please state the reported TGI value of C=C1C(=O)O[C@H]2[C@H]1CC(=O)/C(C)=C\CC[C@@]1(C)O[C@@H]21 .
Response: 6.02 µg/mL

Prompt: What measured TGI goes with O=C1C=C(Nc2nc(C(=O)O)cc(=O)[nH]2)c2ccccc2C1=O ?
Response: > 100 µM

Prompt: TGI lookup needed for Cc1ccc(C2(c3ccc(C)c(O)c3C)CCN(C)CC2)c(C)c1O , thanks.
Response: > 100 µM

Prompt: Consider the compound c1ccc(-c2nc3ccccc3n3nnnc23)cc1 and give its measured TGI.
Response: > 100 µM

====

System: KM12 colon
Assay: NCI tumour cell line growth inhibition, 48 h
recorded_metric: TGI

Prompt: TGI for C=C1[C@H](OCC(C)C)[C@@H](OC(=O)C(C)CC)[C@@H](O)C(C)(C)/C=C/[C@H](C)C(=O)[C@@]2(O)C[C@H](C)[C@H](O)[C@@H]2[C@H]1OC(=O)C(C)CC (stereo partly drawn) ?
Response: > 13.6 µM

Prompt: Consider the compound shown here: CC(C)(CN1CCCCC1)C(=O)/C=C/c1c(Cl)cccc1Cl What is its recorded TGI?
Response: 2.36 µM

Prompt: Dear colleague, I am looking for the recorded TGI of the following compound: Cc1nn(C(=O)c2ccc(Cl)cc2)c2c1C(c1ccco1)SC(N)=N2 (stereo not drawn)
Response: > 10 µM

====

Tested on: U251 CNS
Test: NCI tumour cell line growth inhibition, 48 h
recorded_metric: log10(TGI) (log10 of the value in µM)
Hi team, quick reminder: these entries are log10 of TGI (µM).

Prompt: # returns recorded log10(TGI) (system: U251 CNS) for CN1CCN(c2cc(Nc3cc(C4CC4)[nH]n3)nc(Nc3ccc(CC(=O)NCc4cccc(F)c4)cc3)n2)CC1
Response: 0.72

Prompt: Write down the reported log10(TGI) of COc1ccc(C(=O)N/N=C/c2ccc(O)cc2O)cc1Nc1ccnc(C(F)(F)F)c1 , test system: U251 CNS.
Response: 1.47

Prompt: What measured log10(TGI) is associated with CC(C)(C)c1nnc2n(c1=O)N=CC(c1ccc(Br)cc1)S2 (configuration not stated) on U251 CNS?
Response: 1.83

Prompt: Provide value of log10(TGI) for this record tested with U251 CNS: CCc1cccc(C(C)CC)c1NC(=O)CC1C(=O)Nc2ccccc2S1=O (configuration not stated)
Response: 1.69

Prompt: // fetch U251 CNS log10(TGI) for CC(C)(C)n1cc(-c2ccnc(NCCNS(=O)(=O)c3cccc4ccccc34)c2)c(-c2cccc(F)c2)n1
Response: 1.52

Prompt: For the record CN1CCN(c2c(O)c3c(c(O)c2Cl)C(=O)C=CC3=O)CC1 , what value of log10(TGI) is listed for U251 CNS?
Response: 0.61

====

Would you mind telling me the reported TGI of each entry?
Tested on: HCT-116 colon
Assay: NCI tumour cell line growth inhibition, 48 h
Only the number, expressed in µM, is required.

Prompt: Fill in: TGI of CCOC(=O)C1=CN(C(=O)c2ccccc2)CCC1Cc1ccccc1 (stereo unspecified) is ___
Response: 84.4

Prompt: # get_value(readout='TGI', item= Cc1nc2ccc(NCCN(C)C)c3c(=O)c4cc(O)ccc4n1c23 )
Response: 2.22

Prompt: Given the entry CN1CCN(c2cc(Nc3cc(C4CC4)[nH]n3)nc(Nc3ccc(CC(=O)NCc4cccc(F)c4)cc3)n2)CC1 , report its measured TGI.
Response: 6.87

====

Field: TGI. Provide a value for each of the compounds that follow.
Test system: T-47D breast
Assay: NCI tumour cell line growth inhibition, 48 h

Prompt: Need TGI of COc1cc2c3c(n(C)c(=O)c2cc1OC)-c1cc2c(cc1/C3=C\[C@@H](N)CCCCN)OCO2 , thanks.
Response: > 100 µM

Prompt: Look at this compound and give its reported TGI. Clc1ccc(Nc2nc3ccccc3c3occc23)cc1
Response: 11.3 µM

Prompt: Name the reported TGI value associated with the compound CN1c2ccccc2C(C)(C)C12CC(c1ccc(Cl)c(S(=O)(=O)N3CCCC3)c1)=NO2 (stereo unspecified)
Response: > 100 µM

Prompt: # get_value(readout='TGI', item= CCOC(=O)c1cnc2c(cnn2CC)c1NN=C(C)C )
Response: > 100 µM

Prompt: Given the compound O=C1C=C(Nc2nc(C(=O)O)cc(=O)[nH]2)c2ccccc2C1=O , what is its reported TGI?
Response: > 100 µM

Prompt: I'd like to know its TGI. The compound in question is CC1CN=C(N(C)C(=O)Nc2ccc(Cl)c(Cl)c2)S1 (stereo unspecified)
Response: > 100 µM

====

Test system: NCI/ADR-RES ovarian
Assay: NCI tumour cell line growth inhibition, 48 h; in the data active = GI50 below about 0.43 µM; inactive = the rest
Please answer using one outcome listed in active, inactive

Prompt: What was the test verdict on C#CC#CC#CC#CC#CC#CC#CC#CCC1OC[C@H](COC(=O)O[C@@H](C(=O)O[C@H]2C[C@@]3(O)[C@@H](OC(=O)c4ccccc4)[C@@H]4[C@]5(OC(C)=O)CO[C@@H]5C[C@H](O)[C@@]4(C)C(=O)[C@H](OC(C)=O)C(=C2C)C3(C)C)[C@@H](NC(=O)c2ccccc2)c2ccccc2)O1 (stereo partly drawn) ?
Response: inactive

Prompt: What did this assay record as the result for O=C1C(=O)c2c(nc3ncccn23)-c2ccccc21 ?
Response: active

Prompt: Tell me the assay call for Oc1ccc(-c2nc3ccc4[nH]ncc4c3c3c2CCCC3)c2cccnc12 please.
Response: active

====

System: SN12C renal
Assay: NCI tumour cell line growth inhibition, 48 h
recorded_metric: TGI

Prompt: Item O=C1C=C(NCCc2cc(Br)c(O)c(Br)c2)C(=O)c2[nH]cnc21 has what recorded TGI?
Response: > 100 µM

Prompt: What value of TGI has been reported for the following compound? Cc1nc2ccc(NCCN(C)C)c3c(=O)c4cc(O)ccc4n1c23
Response: 4.93 µM

Prompt: Which TGI is reported for this compound? CN1N(c2ccccc2)C(=O)C2=NC=C(C#N)C(=N)C21C (centres undefined)
Response: > 100 µM

Prompt: Which TGI is reported for this compound? CN(C)CCNC(=O)c1cccc2c1nc(-c1ccccn1)c1ccccc12
Response: > 100 µM

Prompt: Query: TGI; subject: COc1cc(/C=C/C(=O)c2cc(OC)c(OC)c(OC)c2)cc(OC)c1OC
Response: 20.8 µM

Prompt: What does the record list as TGI for O=C(Nc1ccccc1F)c1ccc(NC2=C(Cl)C(=O)N(Cc3ccccc3)C2=O)cc1 ?
Response: 7.93 µM

Prompt: For the compound c1ccc2nn(C3CCCCO3)nc2c1 (centres undefined) , what TGI is on record?
Response: > 100 µM

Prompt: Consider the compound shown here: O=C1CC(Cl)c2c(Cl)sc(Cl)c21 (centres undefined) What is its recorded TGI?
Response: 3.15 µM

Prompt: TGI lookup needed for CC(CC(C)(C)[N+](C)(C)C)[N+](C)(C)C (centres undefined) , thanks.
Response: > 100 µM

Prompt: Would you mind telling me what TGI value was observed for O=[N+]([O-])c1cc(Cl)ccc1S(=O)(=O)c1cc(Cl)cc2c1NCCC2 ?
Response: > 100 µM

Prompt: // lookup TGI for CCOC(=O)/C=C1/Nc2cc(F)c(F)cc2NC1=O
Response: > 100 µM

Prompt: Item under review: CN(Cc1ccccc1)C1(N(C)Cc2ccccc2)CC1 . Reported TGI?
Response: > 100 µM

Prompt: Returns the measured TGI for the input compound. Input: Clc1ccc(Nc2nc3ccccc3c3occc23)cc1
Response: 22.6 µM

Prompt: Consider the compound shown here: O=C1C=C(Nc2nc(C(=O)O)cc(=O)[nH]2)c2ccccc2C1=O What is its recorded TGI?
Response: > 100 µM

Prompt: // lookup TGI for COC1=C(OC)C(=O)C(Cc2c(Cl)nc3n2CCS3)=C(C)C1=O
Response: 31.3 µM

Prompt: For the compound shown here, Oc1ccc(-c2nc3ccc4[nH]ncc4c3c3c2CCCC3)c2cccnc12 , give the reported TGI.
Response: 6.79 µM

Prompt: Can you look up the measured TGI of O=C1NC(=S)NC(=O)C1=Cc1ccc2ccccc2n1 for me?
Response: > 100 µM

Prompt: # get_value(readout='TGI', item= COC(=O)c1cc2c(cc1Cl)SC(N(N(C)C)S(=O)(=O)c1ccc(Cl)cc1)=NS2(=O)=O )
Response: 47.7 µM

Prompt: Reported TGI for CC12CCC(O)CC1CCC1C2CCC2(C)C(C3=CC(=O)OC3)CCC12 (centres undefined) : what is it?
Response: > 100 µM

Prompt: What TGI value was documented for this compound, C#CC#CC#CC#CC#CC#CC#CC#CCC1OC[C@H](COC(=O)O[C@@H](C(=O)O[C@H]2C[C@@]3(O)[C@@H](OC(=O)c4ccccc4)[C@@H]4[C@]5(OC(C)=O)CO[C@@H]5C[C@H](O)[C@@]4(C)C(=O)[C@H](OC(C)=O)C(=C2C)C3(C)C)[C@@H](NC(=O)c2ccccc2)c2ccccc2)O1 (some centres undefined) ?
Response: > 33.3 µM

Prompt: Name the recorded TGI for Cc1ccsc1/C=N/Nc1ccccn1 .
Response: > 100 µM

Prompt: Could you tell me which TGI is on file for COc1ccc2c(c1)C(=O)c1c-2n(CCCCl)c(=O)c2cc(N(C)C)ccc12 ?
Response: > 100 µM

Prompt: Consider the compound CCN1CCCCC(=N\O)/C(=N/O)CCCC1 and give its measured TGI.
Response: > 100 µM

Prompt: Fill blank: measured TGI of the compound CCOC(=O)CCC(NC(=O)c1ccc(NCc2ccc3nc(-c4ccccc4)c(Cl)nc3c2)c2ccccc12)C(=O)OCC (centres undefined) is ____.
Response: > 100 µM

Prompt: For the compound CC(C)(C)c1nnc2n(c1=O)N=CC(c1ccc(Br)cc1)S2 (centres undefined) , what TGI is on record?
Response: 57.2 µM

Prompt: Endpoint output: TGI of CC1=C(c2cc(C(=O)Nc3cccc(C(F)(F)F)c3)nc(NC#N)n2)Sc2ccccc2N1 . Value?
Response: > 100 µM

Prompt: What value of TGI has been reported for the following compound? O=C(O/N=C1/CCCC/C1=C\c1ccccc1)c1ccc(Cl)cc1
Response: > 100 µM

Prompt: # input compound: CCCCc1nc2cc(/C=C/C(=O)NO)ccc2n1CCN(CC)CC ; wanted: its TGI
Response: 30.1 µM

Prompt: May I ask what TGI has been recorded for CCOC(=O)C1(C(=O)OCC)CC=C(C)CC12C(=O)Nc1ccccc12 (centres undefined) ?
Response: > 100 µM
